Tested on: SK-MEL-28 melanoma
Assay: NCI-60 one-dose screen, 48 h (100 = growth as untreated, 0 = no growth, -100 = all killed)
Conditions: 10 µM unless noted
The panel holds about 83,000 compounds, 20% with a hit somewhere; the sample as a whole holds those more often.
quantity_measured: growth (%)

[[record]]
compound = "COc1ccc(Cn2cc3c(c2-c2ccc(OC)cc2)CCc2cnoc2-3)cc1"
system_tested = "SK-MEL-28 melanoma"
observed = 51.2

[[record]]
compound = "CCCCCCCCc1ccc(CCC(N)(CO)CO)cc1"
system_tested = "SK-MEL-28 melanoma"
observed = 92.8

[[record]]
compound = "CNc1ccc(Nc2ccc(S(=O)(=O)O)cc2)c2c1C(=O)c1ccccc1C2=O"
system_tested = "SK-MEL-28 melanoma"
observed = 112

[[record]]
compound = "C=CCSc1nnc(COc2ccc3c(C)c(Cc4ccccc4)c(=O)oc3c2C)o1"
system_tested = "SK-MEL-28 melanoma"
observed = 117

[[record]]
compound = "Nc1ccc(S(=O)(=O)c2ccc(NO)cc2)cc1"
system_tested = "SK-MEL-28 melanoma"
observed = 105

[[record]]
compound = "CCCCCCCCCCCCOC(=N)N(C)C"
system_tested = "SK-MEL-28 melanoma"
observed = 106

[[record]]
compound = "OCCN1CCN(CC/C=C2/c3ccccc3Sc3ccc(C(F)(F)F)cc32)CC1"
system_tested = "SK-MEL-28 melanoma"
observed = 68

[[record]]
compound = "O=C(CCl)NC1c2ccccc2Oc2ccccc21"
system_tested = "SK-MEL-28 melanoma"
observed = 92

[[record]]
compound = "CCC(C)C1NC(=O)C(CC(C)C)NC(=O)C(C)NC(=O)C(C(C)C)NC(=O)C(CCCCN)NC(=O)C(CC(C)C)NC(=O)C(C(C)C)NC(=O)[C@H](C)NC(=O)C(C(C)CC)NC(=O)C(CCCN=C(N)N)NC(=O)C(CCCCN)NC(=O)C(CCCN=C(N)N)NC(=O)C(CCCCN)NC(=O)C([C@H](C)CC)NC(=O)C(CCCCN)NC1=O (stereo partly drawn)"
system_tested = "SK-MEL-28 melanoma"
observed = 41.3

[[record]]
compound = "C/C=C/C/C=C/[C@H](C)C[C@H](O)[C@@H]1C[C@@H]2O[C@H]2/C=C/[C@H](O)[C@@H](O)/C=C/C[C@H](C)CC(=O)O1"
system_tested = "SK-MEL-28 melanoma"
observed = 101

[[record]]
compound = "COc1ccccc1Nc1nnc(COc2ccc(CNC(=O)CCCC/C=C/C(C)C)cc2OC)o1"
system_tested = "SK-MEL-28 melanoma"
observed = 98.1

[[record]]
compound = "COc1cc(-c2nn(-c3ccc(NC(=O)Nc4ccc(Cl)c(C(F)(F)F)c4)cc3)cc2-c2ccncc2)ccc1Cl"
system_tested = "SK-MEL-28 melanoma"
observed = 18.2

[[record]]
compound = "Oc1ccccc1/C=N/N=C\\c1ccccc1Cl"
system_tested = "SK-MEL-28 melanoma"
observed = 105


====

System: 786-0 renal
Experiment: NCI-60 one-dose screen, 48 h (100 = growth as untreated, 0 = no growth, -100 = all killed)
Conditions: 10 µM unless noted
The panel holds about 83,000 compounds, 20% with a hit somewhere; the sample as a whole holds those more often.
growth for assorted molecules
quantity_measured: growth (%)

[[record]]
molecule = "CCC(C)C1NC(=O)C(CCCCN)NC(=O)C(CCCCN)NC(=O)C(CC(C)C)NC(=O)C(CCCCN)NC(=O)C(C(C)CC)NC(=O)C(C(C)C)NC(=O)C(C(C)CC)NC(=O)C(CCCCN)NC(=O)C(CCCCN)NC(=O)C(C)NC(=O)C(CCCCN)NC(=O)C(CC(C)C)NC1=O (stereo not drawn)"
quantity_measured = "growth"
observed = 20.8

[[record]]
molecule = "C=C(C)[C@@H]1CC[C@]2(COC(=O)c3ccccc3C(=O)O)CC[C@]3(C)[C@H](CC[C@@H]4[C@@]5(C)CCCNC(C)(C)[C@@H]5CC[C@]43C)[C@@H]12"
quantity_measured = "growth"
observed = 84.4

[[record]]
molecule = "COc1ccc2c(c1)/C(=C1/S/C(=N/c3nnc(C)s3)NC1=O)C(=O)N2Cc1ccc(Br)cc1"
quantity_measured = "growth"
observed = 34


Source: PubChem BioAssay (NCI)
